# Assay Details: binders of probe aHhip on microarray, primary screen, stem cell growth factor project, biochemical, small-molecule microarray, fluorescence 635/667 (AID 1087);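 further: score merges spot fluorescence at 667nm with spot signal to noise ratio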
# Experimental Parameters: higher = more signal
Readout: composite z-score

INSERT INTO results (compound, observed_value) VALUES
  ('O=C(N1CCCCC1)[C@@]1(CCS(=O)(=O)c2ccccc2)N=C(c2ccc(OCCCO)cc2)O[C@H]1c1ccccc1', -0.0645),
  ('COC(=O)[C@@]1(Cc2ccccc2N=[N+]=[N-])N=C(c2ccc(OCCCO)cc2)O[C@H]1c1ccccc1CN=[N+]=[N-]', 0.0053),
  ('CC(C)N1CC=CC23O[C@@H]4/C=C\CCCOC(=O)C4[C@H]2C(=O)N(CCCCCO)[C@@H]3C1=O (some centres undefined)', 0.0176),
  ('C=CCC(OC(C)=O)[C@@H]1[C@@H](N(Cc2cc3ccccc3o2)C(=O)Cc2ccc(F)cc2)c2cc(OCCCO)ccc2N1C(=O)c1ccc(-c2ccccc2)cc1 (some centres undefined)', -0.0645);
